Source of measurements: ChEMBL document CHEMBL3988442

Study Target: AMP-activated protein kinase, AMPK (Homo sapiens) (UniProt P54646+O43741+P54619+Q9UGJ0+Q9Y478+Q13131+Q9UGI9)
Protocol: AMP-dependent Kinase enzyme assay. An in vitro enzyme assay that detects ADP turnover that is directly proportional to AMPK activity. This uses naive AMPK that is activated during the assay with MK-8722
Type: functional
Parameters: scale not given: direction of the effect not stated beside the values
Recorded Conditions: 30 µM
# Lookup of reported Percent Effect keyed by entry
Write the answer as a number in %, unit excluded.

Below: 5 compounds and their reported Percent Effect.
> print(dat)
                                   compound    readout.kind  unit.tag  experimental.value
1         O=C(Nc1cccc(CNCc2cccs2)c1)C1CCCC1  Percent Effect         %              -0.852
2  COc1ccc(C2=CCN(C(=O)C3CCCN(C(N)=O)C3)CC2)cc1 (stereo unspecified)  Percent Effect         %                 4.4
3   Cc1ccc(CN2CCc3c(C(=O)N(C)C)nn(C)c3C2)s1  Percent Effect         %               -3.87
4  Cc1ccc(NC(=O)c2cc(S(=O)(=O)N3CCCCC3)c[nH]2)cc1F  Percent Effect         %                59.4
5            O=C(CCc1ccccc1)Nc1ncccc1OC(F)F  Percent Effect         %              -0.321

If you can, please state the reported Percent Effect value of O=C(O)c1cc(NS(=O)(=O)c2cccc(Cl)c2F)ccc1Cl . 4.08
